- System: clinical strains of C. parapsilosis
- EXPERIMENT: MIC, clinical yeast strains, C. parapsilosis
- Assay type: cell-based, Candida parapsilosis
- Set-up: unit: μg/ml
- SETUP CONDITIONS: C. parapsilosis clinical yeast strain 2
Where a SMILES comes first, the peptide text is derived from it. [ ]: non-standard residue; d: D form.
Can you tell me Minimum inhibitory concentration for the items I'm about to list?
Answers are plain numbers.

Suppose we examine the compound CC[C@@H](C)[C@@H](NC(=O)[C@@H](Cc1c[nH]c2ccccc12)NC(=O)[C@H](N)CCCCN)C(=O)N[C@@H](C(=O)N[C@H](Cc1c[nH]c2ccccc12)C(=O)N[C@H](CCCNC(=N)N)C(=O)N[C@H](Cc1c[nH]c2ccccc12)C(=O)N[C@H](CCCNC(=N)N)C(=O)N[C@H](Cc1ccccc1)C(=O)N[C@H](CCCCN)C(=O)N[C@H](CCCNC(=N)N)C(=O)O)C(C)C [Chain201D] (H-[dK][dW][dI][dV][dW][dR][dW][dR][dF][dK][dR]-OH) ; what Minimum inhibitory concentration value has been reported?
8

Below: the item to evaluate.
Which Minimum inhibitory concentration is listed for CC[C@@H](C)[C@@H](NC(=O)[C@@H](CC(C)C)NC(=O)[C@@H](CCCNC(=N)N)NC(=O)[C@H](N)CCCNC(=N)N)C(=O)N[C@H](Cc1c[nH]c2ccccc12)C(=O)N[C@H](CCCNC(=N)N)C(=O)N[C@H](CCCNC(=N)N)C(=O)N[C@H](Cc1ccccc1)C(=O)N[C@H](CCCCN)C(=O)N[C@H](Cc1c[nH]c2ccccc12)C(=O)N[C@H](CC(C)C)C(=O)N[C@H](CCCNC(=N)N)C(=O)O [Chain204D] (H-[dR][dR][dL][dI][dW][dR][dR][dF][dK][dW][dL][dR]-OH) ?
4
